The reported measurements were obtained from patent US20190375708A1.

Reported CC50 at 7 days values follow for various compounds
test: In vitro cytotoxicity assay (MTT cell viability) in HepG2 cells; type: cell-based, human; settings: human
Assay readout: CC50 at 7 days

> print(dat)
                                    compound   assay.readout  reported.result
 1  Cc1cc(NC(=O)c2c(C)c(C(=O)C(=O)N[C@H]3CC[C@H](O)CC3)n(C)c2C)ccc1F  CC50 at 7 days       5 to 30 µM
 2  CC(C)(O)CNC(=O)C(=O)c1c(Cl)c(C(=O)Nc2ccc(F)c(F)c2)c2n1CCC2  CC50 at 7 days          > 30 µM
 3  O=C(NC1(CO)CCC1)C(=O)c1c(Cl)c(C(=O)Nc2ccc(F)c(F)c2)c2n1CCOC2  CC50 at 7 days       5 to 30 µM
 4  Cc1noc(C(NC(=O)C(=O)c2c(C)c(C(=O)Nc3ccc(F)c(C)c3)c(C)n2C)C(C)C)n1 (stereo not drawn)  CC50 at 7 days          > 30 µM
 5  Cc1cc(NC(=O)c2c(Cl)c(C(=O)C(=O)NC3(CO)CC(F)(F)C3)n(C)c2C)ccc1F  CC50 at 7 days          > 30 µM
 6  CC[C@@H](CO)NC(=O)C(=O)c1c(C)c(C(=O)Nc2ccc(F)c(C)c2)c(C)n1C  CC50 at 7 days          > 30 µM
 7  Cc1c(C(=O)Nc2cc(F)c(F)c(F)c2)c(C)n(C)c1C(=O)C(=O)Nc1ccccn1  CC50 at 7 days          > 30 µM
 8  Cc1cc(NC(=O)c2c(C)c(C(=O)C(=O)N[C@H]3C[C@H](O)C3)n(C)c2C)ccc1F  CC50 at 7 days          > 30 µM
 9  Cc1noc(C(C)NC(=O)C(=O)c2c(C)c(C(=O)Nc3ccc(F)c(C)c3)c(C)n2C)n1 (stereo not drawn)  CC50 at 7 days          > 30 µM
10  Cc1cc(NC(=O)c2c(C)c(C(=O)C(=O)Nc3ccc(B(O)O)cc3)n(C)c2C)ccc1F  CC50 at 7 days       5 to 30 µM
11  O=C(N[C@H]1C[C@H](O)C1)C(=O)c1c(Cl)c(C(=O)Nc2ccc(F)c(Cl)c2)c2n1CCCC2  CC50 at 7 days          > 30 µM
12  Cc1noc([C@H](C)NC(=O)C(=O)c2c(C)c(C(=O)Nc3ccc(F)c(Cl)c3)c3n2CCCC3)n1  CC50 at 7 days       5 to 30 µM
13  Cc1cc(NC(=O)c2c(C)c(C(=O)C(=O)N[C@@H]3CCC[C@H](O)C3)n(C)c2C)ccc1F  CC50 at 7 days          > 30 µM
14  Cc1cc(NC(=O)c2c(C)c(C(=O)C(=O)NC3CCc4nc(N)sc4C3)n(C)c2C)ccc1F (stereo not drawn)  CC50 at 7 days   0.5 to 4.99 µM
15  Cc1cc(NC(=O)c2cc(C(=O)C(=O)NC3(C(F)(F)F)CC3)n3c2CCCC3)ccc1F  CC50 at 7 days          > 30 µM
16  Cc1cc(NC(=O)c2c(C)c(C(=O)C(=O)NC3(CO)CC3)n3c2CCCC3)ccc1F  CC50 at 7 days       5 to 30 µM
17  Cc1cc(NC(=O)c2c(C)c(C(=O)C(=O)NC(C)(C)C(=O)OC(C)(C)C)n(C)c2C)ccc1F  CC50 at 7 days          > 30 µM
18  Cc1cc(NC(=O)c2c(C)c(C(=O)C(=O)NC3(CN4CCN(c5ccc(Cl)cc5)CC4)CC3)n(C)c2C)ccc1F  CC50 at 7 days       5 to 30 µM
19  Cc1cc(NC(=O)c2c(C)c(C(=O)C(=O)N[C@@H]3CCOC[C@H]3O)n(C)c2C)cnc1F  CC50 at 7 days          > 30 µM
20  CC(C)(C)NC(=O)C(=O)c1cc(C(=O)Nc2ccc(F)c(Cl)c2)c2n1CCC2  CC50 at 7 days   0.5 to 4.99 µM
21  Cc1cc(NC(=O)c2c(C)c(C(=O)C(=O)NCC(C)(C)O)n(C)c2C)cnc1F  CC50 at 7 days          > 30 µM
22  O=C(NC1(CO)CC1)C(=O)c1c(Cl)c(C(=O)Nc2ccc(F)c(F)c2)c2n1CCCC2  CC50 at 7 days          > 30 µM
23  CC(C)(C)NC(=O)C(=O)c1cc(C(=O)Nc2ccc(F)c(F)c2)c2n1CCCC2  CC50 at 7 days          > 30 µM
24  Cc1cc(NC(=O)c2c(C)c(C(=O)C(=O)NCC(C)(C)N3CCOCC3)n(C)c2C)ccc1F  CC50 at 7 days          > 30 µM
25  Cc1cc(NC(=O)c2c(C)c(C(=O)C(=O)NC(C)(C)C(N)=O)n(CCF)c2C)ccc1F  CC50 at 7 days          > 30 µM
26  Cc1cc(NC(=O)c2c(C)c(C(=O)C(=O)NC(C)(C)CO)n3c2CCCC3)cnc1F  CC50 at 7 days          > 30 µM
27  Cc1c(C(=O)Nc2ccc(F)nc2)c(C)n(C)c1C(=O)C(=O)NC(C)(C)C(F)(F)F  CC50 at 7 days          > 30 µM
28  Cc1c(C(=O)Nc2ccc(F)nc2)c(C)n(C)c1C(=O)C(=O)NC(C)(C)CN1CCOCC1  CC50 at 7 days          > 30 µM
29  Cc1cc(NC(=O)c2c(C)c(C(=O)C(=O)NC3(C)CCN(C(=O)c4cn[nH]c4)CC3)n(C)c2C)ccc1F  CC50 at 7 days          > 30 µM
30  Cc1csc(NC(=O)C(=O)c2c(C)c(C(=O)Nc3ccc(F)c(F)c3)c(C)n2C)n1  CC50 at 7 days          > 30 µM
